assay: qHTS assay to identify small molecule agonists of the progesterone receptor (PR) signaling pathway - cell viability counter screen (AID 1346799); conditions: PR-UAS-bla HEK293T viability, CellTiter-Glo luminescence, 16 h; series mostly up to 92.4 µM; note: nearly all actives have a fitted effect of over 45% in size
Inconclusive results are not listed. Active and inactive are the calls of the source. Calls come from the whole dose curve.
Log the outcome using a class from active, inactive

# example entries with known answers
COMPOUND: Cc1cccc(OP(=O)(Oc2cccc(C)c2)Oc2cccc(C)c2)c1
CLASS ASSIGNMENT: inactive

COMPOUND: c1ccc2c(c1)OCC(C1=NCCN1)O2 (stereo not drawn)
CLASS ASSIGNMENT: inactive

COMPOUND: CCOP(=S)(OCC)SCCS(=O)(=O)CC
CLASS ASSIGNMENT: inactive

COMPOUND: CC(=O)c1ccc(-c2ccccc2)cc1
CLASS ASSIGNMENT: inactive

COMPOUND: N#CSCSC#N
CLASS ASSIGNMENT: inactive

Shift focus to the following entry.
Q: Short answer needed: outcome of this test for c1ccc2c(c1)[nH]c1cnccc12 ?
Result: inactive

---

molecular target: Nuclear receptor ROR-gamma (Homo sapiens) (UniProt P51449); assay: qHTS assay to identify small molecule antagonists of the retinoid-related orphan receptor gamma (ROR-gamma) signaling pathway (AID 1159521; note: nearly all actives have a fitted effect of over 50% in size); conditions: Tet-on RORgamma CHO cells, RORE-luciferase, 16 h; series mostly up to 92.4 µM
Results filed as inconclusive are left out. Active and inactive are the calls of the source. Calls come from the whole dose curve; as a rule, active = well fitted inhibition curve with a large enough effect in the repeat runs; inconclusive = weak or mixed curves, or effect the other way; inactive = no such curve, though single readings can be large or run the other way.
Log the outcome using a class from yes (1) for active, no (0) for inactive

MOLECULE: Nc1c(Oc2ccccc2)cc(O)c2c1C(=O)c1ccccc1C2=O
CLASS ASSIGNMENT: no (0)
--
MOLECULE: O=C(CCl)C(Cl)Cl
CLASS ASSIGNMENT: yes (1)
--
MOLECULE: NC(=O)c1ccc(N)nc1
CLASS ASSIGNMENT: yes (1)
--
MOLECULE: [Cl][Sn]([c]1ccccc1)([c]1ccccc1)[c]1ccccc1
CLASS ASSIGNMENT: yes (1)
--
MOLECULE: Fc1cccc(Cl)c1CCl
CLASS ASSIGNMENT: no (0)

Shift focus to the following entry.
Q: Short answer needed: outcome of this test for N#C/C=C/c1ccccc1 ?
Result: no (0)

---

test: qHTS assay for small molecules that induce genotoxicity in human embryonic kidney cells expressing luciferase-tagged ATAD5 - cell viability (AID 651634); conditions: HEK293T ATAD5-luc cells viability, CellTiter-Fluor, 15.5 h; series mostly up to 83.3 µM; note: nearly all actives have a fitted effect of over 25% in size
Results filed as inconclusive are left out. Activity calls are given as the source filed them. Calls come from the whole dose curve.
Log the outcome using a class from y for active, n for inactive

# example entries with known answers
MOLECULAR STRING: O=C(CCCN1CCC2(CC1)C(=O)NCN2c1ccccc1)c1ccc(F)cc1
CLASS ASSIGNMENT: n

MOLECULAR STRING: COc1cccc(C(=O)CCN[C@@H](C)[C@H](O)c2ccccc2)c1
CLASS ASSIGNMENT: n

Q: Short answer needed: outcome of this test for CCC[CH2][Sn]([CH2]CCC)([CH2]CCC)[O]C(=O)c1ccccc1 ?
Result: y

Q: Short answer needed: outcome of this test for O=[N+]([O-])c1ccc(Oc2ccc(C(F)(F)F)cc2[N+](=O)[O-])cc1 ?
Result: n

Q: Short answer needed: outcome of this test for CCCN(CCC)CCc1c[nH]c2ccccc12 ?
Result: n

Q: Short answer needed: outcome of this test for CN(C)C(=S)S ?
Result: n

---

test: qHTS assay to identify small molecule antagonists of the estrogen receptor beta (ER-beta) signaling pathway - cell viability counter screen (AID 1259382); conditions: ER-beta-UAS-bla HEK293T viability, CellTiter-Glo luminescence, 16 h; series mostly up to 92.4 µM;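 note: HEK293T cells carrying ER-beta-UAS-bla reporter stimulated with estradiol; nearly all actives have a fitted effect of over 55% in size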
Inconclusive results are not listed. Calls of active or inactive are those of the source. Calls come from the whole dose curve; as a rule, active = well fitted cell-killing curve with a large enough effect in the repeat runs; inconclusive = weak or mixed curves; inactive = flat fitted curve, though single readings scatter.
Log the outcome using a class from YES (active), NO (inactive)

# example entries with known answers
COMPOUND: CN(C)CCc1c[nH]c2ccc(O)cc12
CLASS ASSIGNMENT: NO

COMPOUND: Cn1[nH]nnc1=S
CLASS ASSIGNMENT: NO

COMPOUND: COP(=O)(OC)SCn1c(=O)oc2cc(Cl)cnc21
CLASS ASSIGNMENT: NO

Q: Short answer needed: outcome of this test for CC(O)C#N (stereo not drawn) ?
Result: NO

Q: Short answer needed: outcome of this test for Clc1ccc(Oc2ccccc2)cc1 ?
Result: NO

---

molecular target: Voltage-gated inwardly rectifying potassium channel KCNH2 (Homo sapiens); assay: Human Ether-a-go-go-Related Gene (hERG) channel small molecule antagonists: fluorescence cell-based qHTS assay (AID 1671200); conditions: hERG-U2OS cells, FluxOR thallium flux fluorescence; series mostly up to 76.8 µM; note: nearly all actives have a fitted effect of over 50% in size
Results filed as inconclusive are left out. The source made the active and inactive calls. Calls follow the shape of the dose curve; as a rule, active = well fitted inhibition curve with a large enough effect in the repeat runs; inconclusive = weak or mixed curves; inactive = flat fitted curve, though single readings scatter.
Log the outcome using a class from active, inactive

# example entries with known answers
COMPOUND: Cn1[nH]nnc1=S
CLASS ASSIGNMENT: inactive

COMPOUND: Clc1ccc(-c2ccccc2)cc1
CLASS ASSIGNMENT: inactive

COMPOUND: CC(C)[C@H](C(=O)O[C@H](C#N)c1cccc(Oc2ccccc2)c1)c1ccc(Cl)cc1
CLASS ASSIGNMENT: inactive

COMPOUND: CCOc1cc(C(C)(C)C)ccc1C1COC(c2c(F)cccc2F)=N1 (configuration not stated)
CLASS ASSIGNMENT: active

COMPOUND: O=[N+]([O-])c1cc([N+](=O)[O-])c2ccccc2c1
CLASS ASSIGNMENT: inactive

Q: Short answer needed: outcome of this test for C=CC(=O)N(C)C ?
Result: inactive

Q: Short answer needed: outcome of this test for CCOC(=O)OC1=C(c2cc(C)ccc2C)C(=O)NC12CCC(OC)CC2 (configuration not stated) ?
Result: inactive

Q: Short answer needed: outcome of this test for OC(c1ccc(Cl)cc1)(c1ccc(Cl)cc1)C(Cl)(Cl)Cl ?
Result: active

Q: Short answer needed: outcome of this test for Oc1ccc(C2(c3ccc(O)cc3)c3ccccc3-c3ccccc32)cc1 ?
Result: inactive

Q: Short answer needed: outcome of this test for S=C=Nc1cccc2ccccc12 ?
Result: inactive

Q: Short answer needed: outcome of this test for Fc1ccc(Oc2ccnc3cc(Cl)cc(Cl)c23)cc1 ?
Result: active

Q: Short answer needed: outcome of this test for CCS(=O)(=O)c1cccnc1S(=O)(=O)NC(=O)Nc1nc(OC)cc(OC)n1 ?
Result: inactive

Q: Short answer needed: outcome of this test for C[C@]12CC[C@H](O)C[C@H]1CC[C@@H]1[C@@H]2C[C@@H](O)[C@]2(C)[C@@H](C3=CC(=O)OC3)CC[C@]12O ?
Result: inactive

Q: Short answer needed: outcome of this test for CC(=O)Nc1ccc2c(c1)Cc1ccccc1-2 ?
Result: inactive

Q: Short answer needed: outcome of this test for ClC(Cl)=C(Cl)Cl ?
Result: inactive

Q: Short answer needed: outcome of this test for O=C(CCl)C(Cl)Cl ?
Result: inactive

Q: Short answer needed: outcome of this test for C[C@]12CC[C@@H]3c4ccc(OC(=O)N(CCCl)CCCl)cc4CC[C@H]3[C@@H]1CC[C@@H]2O ?
Result: inactive

Q: Short answer needed: outcome of this test for C[C@H]1O[C@@H](O[C@H]2[C@@H](O)C[C@H](O[C@H]3[C@@H](O)C[C@H](O[C@H]4CC[C@@]5(C)[C@H](CC[C@@H]6[C@@H]5CC[C@]5(C)[C@@H](C7=CC(=O)OC7)CC[C@]65O)C4)O[C@@H]3C)O[C@@H]2C)C[C@H](O)[C@@H]1O ?
Result: inactive

---

target: Voltage-gated inwardly rectifying potassium channel KCNH2 (Homo sapiens); assay: Human Ether-a-go-go-Related Gene (hERG) channel small molecule antagonists: fluorescence cell-based qHTS assay (AID 1671200); conditions: hERG-U2OS cells, FluxOR thallium flux fluorescence; series mostly up to 76.8 µM; note: nearly all actives have a fitted effect of over 50% in size
Inconclusive results are not listed. Active and inactive are the calls of the source. Calls follow the shape of the dose curve; as a rule, active = well fitted inhibition curve with a large enough effect in the repeat runs; inconclusive = weak or mixed curves; inactive = flat fitted curve, though single readings scatter.
Log the outcome using a class from active, inactive

# example entries with known answers
COMPOUND: CC(C)(C)C(O)C(Oc1ccc(-c2ccccc2)cc1)n1cncn1 (configuration not stated)
MEASURED TARGET: Voltage-gated inwardly rectifying potassium channel KCNH2 (Homo sapiens)
CLASS ASSIGNMENT: inactive

COMPOUND: c1ccc2c(c1)OCC(C1=NCCN1)O2 (configuration not stated)
MEASURED TARGET: Voltage-gated inwardly rectifying potassium channel KCNH2 (Homo sapiens)
CLASS ASSIGNMENT: inactive

Q: Short answer needed: outcome of this test for BrCBr ?
Result: inactive

Q: Short answer needed: outcome of this test for CCCCN(CCCC)C(=S)[S-].CCCCN(CCCC)C(=S)[S-].[Zn+2] ?
Result: inactive

---

assay: qHTS RealTime-Glo MT Cell Viability Assay in HepG2 cells - 16 hour (AID 1224885); details: RealTime-Glo luminescence; series mostly up to 76.8 µM; note: nearly all actives have a fitted effect of over 50% in size
Results filed as inconclusive are left out. Calls of active or inactive are those of the source. Calls come from the whole dose curve; as a rule, active = well fitted cell-killing curve with a large enough effect in the repeat runs; inconclusive = weak or mixed curves; inactive = flat fitted curve, though single readings scatter.
Log the outcome using a class from active, inactive

MOLECULE: C[C@H]1CC[C@@H]2[C@@H](C)[C@H]3[C@H](C[C@H]4[C@@H]5CC=C6CC(O[C@@H]7O[C@H](CO)[C@H](O)[C@H](O[C@@H]8O[C@H](CO)[C@@H](O)[C@H](O)[C@H]8O)[C@H]7O[C@H]7O[C@@H](C)[C@H](O)[C@@H](O)[C@H]7O)CC[C@]6(C)[C@H]5CC[C@]34C)N2C1 (stereo not given in full)
CLASS ASSIGNMENT: active
//
MOLECULE: ClCCN1CCOCC1
CLASS ASSIGNMENT: inactive
//
MOLECULE: O=[N+]([O-])c1c2ccccc2cc2ccccc12
CLASS ASSIGNMENT: inactive
//
MOLECULE: Cc1cc(C)cc(OP(=O)(Oc2cc(C)cc(C)c2)Oc2cc(C)cc(C)c2)c1
CLASS ASSIGNMENT: inactive
//
MOLECULE: CC(=O)[O-].[Tl+]
CLASS ASSIGNMENT: inactive
//
MOLECULE: [Cd+2].[Cl-].[Cl-]
CLASS ASSIGNMENT: inactive

Q: Short answer needed: outcome of this test for Nc1c(Oc2ccccc2)cc(O)c2c1C(=O)c1ccccc1C2=O ?
Result: inactive

Q: Short answer needed: outcome of this test for CC(C)OC(=S)S ?
Result: inactive

Q: Short answer needed: outcome of this test for COC(=O)N(C(=O)N1COC2(C(=O)OC)Cc3cc(Cl)ccc3C2=N1)c1ccc(OC(F)(F)F)cc1 (stereo not given) ?
Result: inactive

Q: Short answer needed: outcome of this test for N#Cc1ccccc1N ?
Result: inactive
